Value source: patent US8906829B2

Each entry below lists one item and its recorded melting point value.

Guide cases for melting point, answers given:
O=C(N/N=C/c1c(Cl)ccc(Cl)c1O)c1cccc(Cl)c1 = 232 to 234 °C
C/C(=N\NC(=O)c1cccc(C)c1)c1cc(Cl)cc(Cl)c1O = 221 to 223 °C
C/C(=N\NC(=O)c1ccc(Cl)cc1)c1cc(F)cc(F)c1O = 276 to 280 °C

Quote melting point reported for C/C(=N\NC(=O)Cc1ccccc1)c1cc(Cl)cc(Cl)c1O please.
199 to 204 °C

Please indicate melting point recorded for O=C(N/N=C/c1c(C(F)(F)F)ccc(Cl)c1O)c1ccc(Cl)cc1
236 to 238 °C

State, in one line, measured melting point of Cc1cccc(C(=O)N/N=C/c2cccc(C(F)(F)F)c2O)c1
188 to 190 °C

Given O=C(N/N=C/c1cc(C(F)(F)F)cc(Cl)c1O)c1ccccc1O , respond with its melting point.
258 to 260 °C

Provide one value: measured melting point of O=C(N/N=C/c1c(Cl)ccc(Cl)c1O)c1ccc(F)cc1
264 to 267 °C

* * *

Recorded inhibition of growth at 1 µg/mL, one value per entry.
- Tested on: C. reinhardtii CC-1928
- assay: Effect of copper on activity of hydrazones: in vitro growth inhibition of C. reinhardtii in TAP Cu minus / TAP Cu plus medium (Example 10)
- Format: cell-based, Chlamydomonas reinhardtii
- condition-info: Chlamydomonas reinhardtii; test compound 1 μg/mL; TAP Cu minus medium; 48 h; read-out: % Inhn. Minus Copper Observed
Number in %, nothing else.

Solved cases below.
Cc1cccc(C(=O)N/N=C/c2ccc(Cl)c(Cl)c2O)c1 [Compound 38] = 15
O=C(N/N=C/c1ccc(Cl)c(Cl)c1O)c1cccc(Cl)c1 [Compound 40] = 22

# assay system C. reinhardtii CC-1928: give inhibition of growth at 1 µg/mL of Cc1ccccc1C(=O)N/N=C/c1cc(Cl)cc(Br)c1O [Compound 16]
-3

Give inhibition of growth at 1 µg/mL; test system C. reinhardtii CC-1928; molecule O=C(N/N=C/c1cccc(C(F)(F)F)c1O)c1ccc(Cl)cc1 [Compound 35]
9

Quote C. reinhardtii CC-1928 inhibition of growth at 1 µg/mL for entry O=C(N/N=C/c1cc(Cl)ccc1O)c1ccccc1 [Compound 3] .
25

Using C. reinhardtii CC-1928 as the test system, report measured inhibition of growth at 1 µg/mL of O=C(N/N=C/c1cc(Cl)cc(Br)c1O)c1ccccc1 [Compound 14] .
6

* * *

Recorded % Inhn. Plus Copper Observed for the following molecules
- Test system: C. reinhardtii CC-1928
- assay: Effect of copper on activity of hydrazones: in vitro growth inhibition of C. reinhardtii in TAP Cu minus / TAP Cu plus medium (Example 10)
- Assay type: cell-based, Chlamydomonas reinhardtii
- condition-info: test compound 1 μg/mL; TAP Cu plus medium (CuCl2); 48 h
Respond with the bare value in %.

For orientation, consider the following solved cases.
Cc1ccccc1C(=O)N/N=C/c1cc(Cl)cc(Cl)c1O [Compound 63] = 93
C/C(=N\NC(=O)c1ccccc1)c1ccccc1O [Compound 2] = 95
C/C(=N\NC(=O)c1ccccc1)c1cc(Br)cc(Br)c1O [Compound 61] = 94
O=C(N/N=C/c1c(C(F)(F)F)ccc(Cl)c1O)c1ccccc1O [Compound 57] = 95

Please turn your attention to the following entry.
Let me know recorded % Inhn. Plus Copper Observed for O=C(N/N=C/c1cc(Cl)cc(Cl)c1O)c1ccc(Br)cc1 [Compound 9] , thanks.
90
